biological target: RIPK2 (KD)/XIAP (BIR2) (Homo sapiens, UniProt O43353); experiment: RIPK2-XIAP binding competition PPI assay (TR-FRET); settings: GST-RIPK2 / His-XIAP (BIR2)-avi, 120 min at 23° C.
Sequence (O43353 1-310): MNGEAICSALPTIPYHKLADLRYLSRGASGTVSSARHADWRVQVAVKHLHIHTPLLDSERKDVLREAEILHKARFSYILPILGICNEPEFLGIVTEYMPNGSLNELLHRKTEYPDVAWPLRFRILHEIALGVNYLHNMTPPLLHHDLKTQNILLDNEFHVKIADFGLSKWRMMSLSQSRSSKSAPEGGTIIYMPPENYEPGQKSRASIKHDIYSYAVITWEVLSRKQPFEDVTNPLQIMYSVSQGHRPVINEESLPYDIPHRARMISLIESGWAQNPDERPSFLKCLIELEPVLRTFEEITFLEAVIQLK
measurement_type: IC50

INSERT INTO assay_data (compound, reported_measurement) VALUES
  ('COc1cc2ncc(-c3cc(C(=O)N[C@H](C)c4nccs4)n(C)n3)n2cc1S(=O)(=O)C(C)(C)C', '0.01 to 0.1 µM'),
  ('COc1cc2ncc(-c3cc(C(=O)N[C@H](C)c4ccccc4)n(C)n3)n2cc1S(=O)(=O)C(C)(C)C', '0.01 to 0.1 µM'),
  ('CCn1nc(-c2cnc3cc(OCCO)c(S(=O)(=O)C(C)(C)C)cn23)cc1C(=O)N[C@@H](C)c1cc(C)sn1', '0.1 to 1 µM');

Each compound below has a recorded value; state its IC50.
1. COc1cc2ncc(-n3cc(NC(=O)N4CCCC4c4ccccc4)cn3)n2cc1S(=O)(=O)C(C)(C)C (single isomer, unassigned) [Example 178]
2. CCn1nc(-c2cnc3cc(OC)c(S(=O)(=O)C(C)(C)C)cn23)cc1C(=O)N[C@H](C)c1nccs1
3. C[C@@H](NC(=O)c1cc(-c2cnc3cc(OCCO)c(S(=O)(=O)C(C)(C)C)cn23)nn1C)c1ncccn1
4. CCn1nc(-c2cnc3cc(OCCO)c(S(=O)(=O)C(C)(C)C)cn23)cc1C(=O)N[C@@H](C)c1ncc(C)s1
5. COc1cc2ncc(-c3cc(C(=O)N[C@H](C)c4ccccn4)n(C)n3)n2cc1S(=O)(=O)C(C)(C)C
6. COc1cc2ncnc(-c3cc(C(=O)NCc4ccccc4)n(C)n3)c2cc1S(=O)(=O)C(C)(C)C
7. COc1cc2ncc(-c3cc(C(=O)NCc4cnn5ccccc45)n(C)n3)n2cc1S(=O)(=O)C(C)(C)C

["> 1 µM", "< 0.01 µM", "0.01 to 0.1 µM", "0.01 to 0.1 µM", "0.01 to 0.1 µM", "0.1 to 1 µM", "> 1 µM"]

Each compound below has a reported value. Please supply its IC50.
1. COc1cc2ncc(-c3cc(C(=O)NCc4ncsn4)n(C)n3)n2cc1S(=O)(=O)C(C)(C)C
2. CC(C)n1nc(-c2cnc3cc(OCCO)c(S(=O)(=O)C(C)(C)C)cn23)cc1C(=O)N[C@H](C)c1ncccn1
3. COc1cc2ncc(-c3cc(C(=O)NCc4nc(C)cs4)n(C)n3)n2cc1S(=O)(=O)C(C)(C)C
4. COc1cc2ncc(-c3cc(C(=O)NCc4nsc(C)n4)n(C)n3)n2cc1S(=O)(=O)C(C)(C)C

1: 0.01 to 0.1 µM; 2: < 0.01 µM; 3: 0.1 to 1 µM; 4: 0.1 to 1 µM

For each of the compounds below, state IC50.
1. COc1cc2ncc(-n3cc(NC(=O)N4CCCC4c4ccccc4)cn3)n2cc1S(=O)(=O)C(C)(C)C (single isomer, unassigned) [Example 179]
2. C[C@H](NC(=O)c1cc(-c2cnc3cc(OCCO)c(S(=O)(=O)C(C)(C)C)cn23)nn1C)c1ncccc1Cl

> 1 µM
> 1 µM

The following compounds each have a reported value; give each one's IC50.
1. COc1cc2ncc(-c3cc(NC(=O)OCc4ccccc4)n(C)n3)n2cc1S(=O)(=O)C(C)(C)C
2. COc1cc2ncc(-n3cc(NC(=O)[C@@H](c4ccccc4)N(C)C)cn3)n2cc1S(=O)(=O)C(C)(C)C
3. COc1cc2ncc(-c3cc(C(=O)NCc4nccn4C)n(C)n3)n2cc1S(=O)(=O)C(C)(C)C

0.01 to 0.1 µM
> 1 µM
> 1 µM
